Molecular target: T1, SARS-CoV-2 spike receptor binding domain (RBD) (SARS-CoV-2, UniProt P0DTC2 319-541)
T1 construct: also called SARS-CoV RBD
Assay: RBD/ACE2 competition; RBD binding to ACE2 on HEK-293 cells
readout label: ACE2 binding [% inhibition]
Give the value; after it, write the unit.

Example results:
{"columns": ["binder", "readout label", "endpoint result"],
 "data": [
  ["SARS2-19C4_f3 (antibody, V domains shown, also called antibody number 20; family A) VH: EVQLVETGGGLIQPGGSLRLSCAASGITVSSNYMNWVRQAPGKGLEWVSVIYSGGSTFYADSVKGRFTISRDNSKNTLYLQMNSLRAEDTAVYYCARDLEVAGGFDIWGQGTMVTVSL VL: DIQLTQSPSFLSASVGDRVTITCRASQGISSYLAWYQQKPGKAPKVLIYAASTLQSGVPSRFSGSGSGTKFTLTISSLQPEDFATYYCQQLNSFPPSTFGQGTKLEIK", "ACE2 binding [% inhibition]", "89%"],
  ["SARS2-5H12_f3 (antibody, V domains shown, also called antibody number 7) VH: QVQLVQSGAEVKKPGTSVKVSCKTSGYTFPSYDIIWVRQATGQGLEWMGWMSPKNGNTGFAQRFQGRVTMTRNTSISTAYMELSSLRSEDTAVYYCARFGYGSGALGYYYYGLDVWGQGTTVTVSS VL: EIVLTQSPGTLSLSPGERATLSCRASQSVRSSHLAWYRQKPGQAPRLLIYGASSRATGIPDRFSGRGSGTDFTLTISRLEPEDFAVYYCQQYNFSPITFGQGTRLEIK", "ACE2 binding [% inhibition]", "100%"],
  ["SARS2-5D7_f3 (antibody, V domains shown, also called antibody number 6) VH: QVQLVQSGAEVKKPGTSVKVSCKTSGYTFTSYDIIWVRQATGQGLEWMGWMSPKNGNTGYAQRFQGRVTMTRNTSISTAYMELSSLRSEDTAVYYCARFGYGSGALDYYYYGLDVWGQGTTVTVSS VL: EIVLTQSPGTLSLSPGERATLSCRASQSVRSSHLAWYRQKPGQAPRLLIYGASSRATGIPDRFSGRGSGTDFTLTISRLEPEDFAVYYCQQYNISPITFGQGTRLEIK", "ACE2 binding [% inhibition]", "97%"],
  ["11G2_f3 (antibody, V domains shown, also called SARS2-11G2_S; antibody number 13) VH: QVQLVQSGAEVKKPGASVKVSCKASGYTFTSYDITWVRQATGQGLEWMGWMSPNSGNTGYAQKFQGRVSMTRNTSISTAYMELSSLRSEDTAVYYCARFGYGSGALDYYYYGLDVWGQGTTVTVSS VL: EIVLTQSPGTLSLSPGERATLSCRASQSVRNSHLAWYQQKPGQAPRLLIYGASSRATGIPDRFSGSGSGTDFTLTISRLEPEDFAVYYCQQFGSSPITFGQGTRLEIK", "ACE2 binding [% inhibition]", "90%"],
  ["SARS2-1D5_f3 (antibody, V domains shown, also called antibody number 2) VH: QVQLVQSGAEVKKPGASVKVSCKASGYTFTSYDITWVRQATGQGLEWMGWMSPNSGNTGYAQKFQGRVTMTRNTSISTAYMELNSLRSEDTAVYYCARFGYGSGALDYYYYGLDVWGQGTTVTVSS VL: EIVLTQSPGTLSLSPGDRATLSCRASQSVRSSHLAWYQQKPGQAPRLLIYGASSRATGIPDRFSGSGSGTDFSLTISRLEPEDFAVYYCQQFGSSPITFGQGTRLEIK", "ACE2 binding [% inhibition]", "94%"]
]}

What the record says about SARS2-7C10_f3 (antibody, V domains shown, also called antibody number 8) VH: QVQLVQSGAEVKKPGASVKVSCKASGYTFTSYDITWVRQATGQGLEWMGWMSPNSGNTGYAQKFQGRVTMTRNTSISTAYMELRSLRSEDTAVYYCARFGYGSGALDYYYYGLDVWGQGTTVTVSS VL: EIVLTQSPGTLSLSPGERATLSCRASQSVRSSHLAWSQQKPGQAPRLLIYGASSRATGIPDRFSGSGSGTDFTLTISRLEPEDFAVYYCQQFGSSPITFGQGTRLEIK : ACE2 binding [% inhibition] is 85%

What the record says about SARS2-16C5_f3 (antibody, V domains shown, also called antibody number 15; family B) VH: QVQLVQSGAEVKKPGASVKVSCKASGYTFTSYDIIWVRQATGQGLEWMGWMSPNSGNTGYAQKFQGRVTMTRNTSIGTAYMELSSLRSEDTAVYFCARFGYGSGALDYYYYGLDVWGQGTTVTVSS VL: EIVLTQSPGTLSLSPGERATLSCRASQSVRSSHLAWYQQKPGQAPRLLIYGASSRATGIPDRFSGSGSGTDFTLTISRLEPEDFAVYYCQQYNNSPITFGQGTRLEIK : ACE2 binding [% inhibition] is 94%

What the record says about SARS2-10D6_f3 (antibody, V domains shown, also called antibody number 11; family A) VH: EVQLVETGGGLIQPGGSLRLSCAASGITVSSNYMNWVRQAPGKGLEWVSVIYSGGSTYYADSVKGRFTISRDNSKNTLYLQMNSLRAEDTAVYYCARDLELAGAFDIWGQGTMVTVSL VL: DIQLTQSPSFLSASVGDRVTITCRASQGISSYLAWYQQKPGKAPKVLIYAASTLQSGVPSRFSGSGSGTEFTLTISSLQPEDFATYYCQQLNSYPPSTFGQGTKLEIK : ACE2 binding [% inhibition] is 81%

What the record says about SARS2-11D5_f3 (antibody, V domains shown, also called antibody number 12) VH: EVQLVETGGGLIQPGGSLRLSCAASGITVSSNYMSWVRQAPGKGLEWVSVIYSGGSTYYADSVKGRFTISRDNSKNTLYLQMNSLRAEDTAVYYCARDLAVAGAFDIWGQGTMVTVSL VL: DIQLTQSPSFLSASVGDRVTITCRASQGISSYLAWYQQKPGKAPKVLIYAASTLQSGVPSRFSGSGSGTEFTLTISSLQPEDFATYYCQQLNSYPPSTFGQGTKLEIK : ACE2 binding [% inhibition] is 66%

What the record says about SARS2-1E2_f3 (antibody, V domains shown, also called antibody number 4) VH: QVQLVQSGAEVKKPGASVKVSCKASGYTFTSYDITWVRQATGQGLEWMGWMSPNSGNTGYAQKFQGRVTMTRNTSISTAYMELSSLRSEDTAVYYCARFGYGSGALDYYYYGLDVWGQGTTVTVSS VL: EIVLTQSPGTLSLSPGERATLSCRASQSVRSSHFAWYQQKPGQAPRLLIYGASSRATGIPDRFSGSGSGTDFTLTISRLEPEDFAVCYCQQYGSSPITFGQGTRLEIK : ACE2 binding [% inhibition] is 86%
